Measured logP values are reported for all entries that follow.
Could you keep your reply to the number by itself?

These recorded examples may help you get a feel for the data.
- compound string: "O=C(Nc1ccc(Cl)cc1[N+](=O)[O-])c1cc(Cl)cc(Cl)c1O"
  value: 5.08
- compound string: "O=C(Nc1ccc(Cl)cc1Cl)c1ccccc1O"
  value: 5.49
- compound string: "O=C(Nc1ccc(F)cc1F)c1cc(Br)cc(Br)c1O"
  value: 4.99

stdin: Would you kindly share the measured logP for O=C(Nc1ccc(Cl)cc1)c1cc(Br)ccc1O ?
stdout: 5.02

stdin: Would you kindly share the measured logP for O=C(Nc1ccccc1)c1cc(Cl)cc(Cl)c1O ?
stdout: 4.01

stdin: Would you kindly share the measured logP for O=C(Nc1ccc(Cl)cc1[N+](=O)[O-])c1cc(Br)cc(Br)c1O ?
stdout: 5.05

stdin: Would you kindly share the measured logP for O=C(Nc1ccc(Cl)cc1)c1cc(Cl)cc(Cl)c1O ?
stdout: 5.15

stdin: Would you kindly share the measured logP for Cc1cc(Cl)ccc1NC(=O)c1cc(F)ccc1O ?
stdout: 4.89

stdin: Would you kindly share the measured logP for O=C(Nc1ccc(Cl)cc1[N+](=O)[O-])c1ccccc1O ?
stdout: 4.02

---

assay overview: method code SF-HPLC, from DOI: 10.1016/0005-2728(88)90027-8, PMID: 3196713
measurement setup: pH 2.2
quantity name: logD

- compound string: "O=C(Nc1ccccc1Cl)c1ccccc1O"
  logD: 4.35
- compound string: "Cc1ccccc1NC(=O)c1cc(Cl)ccc1O"
  logD: 4.21

API: the following record is the query input.
stdin: Would you kindly share the measured logD for O=C(Nc1ccc(F)cc1)c1cc(Cl)cc(Cl)c1O ?
stdout: 4.76

---

quantity name: logP
Could you keep your reply to the number by itself?

These recorded examples may help you get a feel for the data.
- compound string: "O=C(Nc1ccc(F)cc1F)c1cc(Cl)cc(Cl)c1O"
  quantity name: "logP"
  value: 4.55
- compound string: "Cc1cc([N+](=O)[O-])ccc1NC(=O)c1cc(Cl)cc(Cl)c1O"
  quantity name: "logP"
  value: 4.51
- compound string: "O=C(Nc1ccccc1[N+](=O)[O-])c1ccccc1O"
  quantity name: "logP"
  value: 2.87

stdin: Would you kindly share the measured logP for O=C(Nc1ccc(Cl)cc1)c1ccccc1O ?
stdout: 4.29

stdin: Would you kindly share the measured logP for O=C(Nc1ccccc1)c1cc(Cl)ccc1O ?
stdout: 3.98

stdin: Would you kindly share the measured logP for Cc1cc(Br)ccc1NC(=O)c1cc(F)ccc1O ?
stdout: 5.15

stdin: Would you kindly share the measured logP for Cc1cc(Cl)ccc1NC(=O)c1ccccc1O ?
stdout: 5.18

stdin: Would you kindly share the measured logP for O=C(Nc1ccc(Br)cc1)c1ccccc1O ?
stdout: 4.51
